experiment: NCI Yeast Anticancer Drug Screen. Data for the mec2-1 strain (AID 157); conditions: S. cerevisiae mec2-1 strain, at 5.0 µM (retest, dose inferred, filed as 0.5), active compounds read high
Compounds without any hit were thinned out: in the full panel of roughly 79,000, 15% have a hit.
ASSAY METRIC: growth inhibition (%)
Could you give me the number in %? Just the number is fine.

MOLECULE	MEAS VALUE
ICCCCSc1cc(-c2ccccc2)[o+]c2ccccc12	10

## Task Supply reported growth inhibition belonging to this molecule: `CSc1cccc(N2C(=O)C=CC2=O)c1`
## Result 49

## Task State, in one line, measured growth inhibition of `O=C1OC2(c3ccccc31)c1cc(I)c(O)c(I)c1Oc1c2cc(I)c(O)c1I`
## Result 61

## Task Report growth inhibition, nothing else, for this molecule: CC1(c2ccccc2)OC(=O)C=CC1=O (configuration not stated)
## Result 28

* * *

experiment: NCI Yeast Anticancer Drug Screen. Data for the cln2 rad14 strain (AID 165);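 also: 0% = growth equal to vehicle treated cultures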; details: S. cerevisiae cln2 rad14 strain, at 50.0 µM
The panel holds about 79,000 compounds, 15% with a hit somewhere; the sample as a whole holds those more often. Active and inactive are the calls of the source. Cut-off read from the data, not from the text of the source: active = growth inhibition above about 70%; inactive = the rest.
Pick one: t = active, f = inactive

## Task In this assay, the call recorded for OC(Cc1cccnc1)(c1ccccc1)c1ccc(Cl)cc1 (stereo not drawn) was what?
## Result t

* * *

experiment: NCI Yeast Anticancer Drug Screen. Data for the mec2-1 strain (AID 157); details: S. cerevisiae mec2-1 strain, at 50.0 µM (retest, dose inferred, filed as 5.0)
Compounds without any hit were thinned out: in the full panel of roughly 79,000, 15% have a hit. The source made the active and inactive calls. No stated cut-off is given here; in the data, active means growth inhibition above about 70%; inactive means the rest. Where a SMILES comes first, the peptide text is derived from it. The star is where a group is joined. Cbz = O=C(OCc1ccccc1)*; CH2Cl = ClC*
Would you mind answering with one of these outcomes? yes (active), no (inactive)

COMPOUND	CLASS ASSIGNMENT
CCC(C)OC(=O)c1cccc(C)c1 (configuration not stated)	no
c1ccc2c(c1)ccc1c[n+]3c4ccccc4ccc3n12	yes
CC(C)CC(NC(=O)OCc1ccccc1)C(=O)NC(Cc1ccccc1)C(=O)CCl (stereo not drawn) (Cbz-Leu-Phe-CH2Cl; configuration not given here)	yes
C=CCNC(=S)N/N=C(/c1ccccn1)C(C)C	no
O=C1OC2(CCCCC2)OC(=O)C1=Cc1ccc([N+](=O)[O-])s1	yes

Could you now consider this next compound?
## Task # outcome recorded in this test, key = `Cc1ccc(C)c(C(=O)/C=C/C(=O)O)c1`
## Result yes

* * *

assay: NCI Yeast Anticancer Drug Screen. Data for the sgs1 mgt1 strain (AID 161);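 also: 0% = growth of cultures given vehicle only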; conditions: S. cerevisiae sgs1 mgt1 strain, at 50.0 µM, active compounds read high
About 79,000 compounds went through this panel and 15% of them were active in at least one assay; those are over-represented in the sample as a whole. Active and inactive are the calls of the source. No stated cut-off is given here; in the data, active means growth inhibition above about 70%; inactive means the rest.
ASSAY METRIC: growth inhibition

COMPOUND	growth inhibition
O=c1c(Cc2c[nH]c3ccccc23)coc2ccccc12	51.1% (inactive)
N#CC(c1ccc(Cl)cc1)c1ccc([N+](=O)[O-])cc1 (stereo unspecified)	60.9% (inactive)
Cc1ccc(O)c(C(c2cc(C)ccc2O)c2cc([N+](=O)[O-])ccc2O)c1	40.5% (inactive)
O=[N+]([O-])/C=C/c1c[nH]c2c1ccc1ccccc12	94.2% (active)
O=C(O)/C=C/c1c2ccccc2cc2ccccc12	94.7% (active)

## Task Return growth inhibition for the following compound: `CC(=O)Oc1cccc2c(OC(C)=O)cccc12`
## Result 70.8% (active)

* * *

assay: NCI Yeast Anticancer Drug Screen. Data for the mec2-1 strain (AID 157); settings: S. cerevisiae mec2-1 strain, at 50.0 µM
Compounds without any hit were thinned out: in the full panel of roughly 79,000, 15% have a hit. Activity calls are given as the source filed them. No stated cut-off is given here; in the data, active means growth inhibition above about 70%; inactive means the rest.
Log the outcome using a class from yes (1) = active, no (0) = inactive

See these solved cases before continuing.
COMPOUND	CLASS ASSIGNMENT
CCCCCCCCCCOC(=O)Nc1ccc(C)c(NC(=O)OCCCCCCCCCC)c1	no (0)
Cc1cc(C)[nH]c(=S)n1.[Pt]	no (0)
CCC1(C)C(C#N)(C#N)C1(C#N)C#N	yes (1)
O=C(Nc1ccccc1)C(F)(F)C(F)(F)C(F)(F)F	no (0)
CC(C)(C)C1=NN=C2c3ccccc3C(=O)C21 (stereo unspecified)	no (0)

## Task Given `CCOc1ccccc1N=Nc1ccc2oc(=O)c(C(=O)Nc3cccc(C)c3)cc2c1` , state the outcome it received in this test.
## Result no (0)

* * *

assay: NCI Yeast Anticancer Drug Screen. Data for the mec2-1 strain (AID 157); conditions: S. cerevisiae mec2-1 strain, at 5.0 µM (retest, dose inferred, filed as 0.5), active compounds read high
Compounds without any hit were thinned out: in the full panel of roughly 79,000, 15% have a hit.
Listed here are compounds together with their documented growth inhibition.
Just the number please, in %, no unit attached.

Example cases with answers are listed next.
COMPOUND	UNITS LABEL	growth inhibition
CCCC(CC)c1cc(O)c(O)cc1C(CC)CCC (stereo not drawn)	%	-18
Cc1ccc(C2=C(C#N)C(c3ccccc3)C(C#N)=C(N)O2)cc1 (stereo not drawn)	%	53
O=[N+]([O-])c1ccc(-c2nc3c(o2)CCC3)cc1	%	-15
CCCCCCCCCCCCCCOS(=O)(=O)O	%	-27
Oc1ccc(-c2nnc(-c3ccc(Cl)cc3Cl)o2)cc1	%	2
O=C(Nc1ccc(Br)cc1)c1cc(Br)c(O)c(Br)c1O	%	9

## Task Assign growth inhibition to the following record: `CN(N(P(c1ccccc1)c1ccccc1)P(c1ccccc1)c1ccccc1)P(c1ccccc1)c1ccccc1`
## Result -5

## Task Tell me measured growth inhibition for `CCCCCCCCCCCCn1cnc2ncnc(Cl)c21` please.
## Result 7

## Task Give the value of growth inhibition reported for the following: `C[C@H](CCC1=NCCN1)[C@H]1CC[C@H]2[C@@H]3CC[C@@H]4C[C@H](O)CC[C@]4(C)[C@H]3C[C@H](O)[C@]12C`
## Result 26

## Task Supply reported growth inhibition belonging to this compound: S=C(Nc1ccccc1)NC1CC2C=CC1CC2 (stereo not drawn)
## Result -11

## Task Provide growth inhibition value for the following compound: `CN(C)c1ccccc1CN1CCCN(Cc2ccccc2N(C)C)C1`
## Result 8

## Task Give reported growth inhibition value for `CCC[n+]1ccc(/C=N\NC(N)=S)c2ccccc21`
## Result 19

## Task For the compound `COc1ccc(/C=C2\N=C(c3ccco3)OC2=O)cc1Br` , give its measured growth inhibition value.
## Result -17

## Task Name the recorded growth inhibition of the compound listed here: `CCc1cc2c(c3c1C(=O)CC3)C(C)(C)CCC2`
## Result 2

## Task Look up and report measured growth inhibition for this entry: `O=C(CCl)OCC(=O)c1ccc(-c2ccccc2)cc1`
## Result 5

## Task Read the entry `O=c1c2ccccc2nc(-c2ccccc2)n1NC(=S)Nc1ccc(Cl)cc1[N+](=O)[O-]` and write its reported growth inhibition.
## Result -7

## Task Respond only with growth inhibition recorded for `Cc1ccc([N+](=O)[O-])cc1Cl`
## Result 2

## Task Write down growth inhibition measured for item `CCNC1(C2c3ccccc3-c3ccccc32)c2ccccc2-c2ccccc21`
## Result -17

## Task Respond only with growth inhibition recorded for `O=C(CSc1nnc(Cc2ccccc2)o1)Nc1ccc(Cl)cc1[N+](=O)[O-]`
## Result -13

## Task Let me know recorded growth inhibition for `O=C(/C=C/c1cccc2ccccc12)c1cccc([N+](=O)[O-])c1` , thanks.
## Result -25

## Task Please report growth inhibition for the following compound: `O=[N+]([O-])c1cccc(S(=O)(=O)Cl)c1`
## Result 2

## Task Return growth inhibition for the following compound: O=C(Nc1cccc2ccccc12)OCC1CCc2ccccc2C1 (stereo not drawn)
## Result -6

## Task Give growth inhibition for `CCOC(=O)C(C)(C)Oc1ccc2c(=O)cc(-c3ccccc3)oc2c1`
## Result -28

* * *

Experiment: NCI Yeast Anticancer Drug Screen. Data for the cln2 rad14 strain (AID 165);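 also: 0% = growth equal to vehicle treated cultures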
Conditions: S. cerevisiae cln2 rad14 strain, at 5.0 µM (retest, dose inferred, filed as 0.5)
Procedure: Growth inhibition of yeast strains with defined genetic alterations is measured as a screen for potential anti-cancer activity. Selected strains with alterations in DNA damage repair or cell cycle control were exposed to compounds and growth inhibition was measured relative to vehicle treated controls. The strain used in this assay is cln2 rad14
About 79,000 compounds went through this panel and 15% of them were active in at least one assay; those are over-represented in the sample as a whole. Calls of active or inactive are those of the source. Cut-off read from the data, not from the text of the source: active = growth inhibition above about 70%; inactive = the rest.
Choose one outcome from this list and give only that: class 1 for active, class 0 for inactive

MOLECULE	CLASS ASSIGNMENT
OCC(O)C(O)C(O)/C=N\Nc1ccccc1 (stereo not given)	class 0
C#Cc1cccc(N2C(=O)CCC2=O)c1	class 1
CC(=O)Nc1ccc2c(c1)Cc1cccc(F)c1-2	class 0
Fc1cccc(NC(=S)SCc2ccc(Cl)cc2)c1	class 0
CCCN(CCC)CCNc1ccc(C)c2sc3ccccc3c(=O)c12	class 0
Cc1cc2c(c(C(N)=O)c1C)-c1cccc(F)c1C2=O	class 0

We next turn to a different molecule, shown below.
## Task // outcome(item) with item = `CCOc1cnn(-c2ccccc2)c(=O)c1SCc1ccc(Cl)c(Cl)c1`
## Result class 0

Hey, just so you know, these numbers are from PubChem BioAssay (NCI).
